- Test system: M14 melanoma
- test summary: NCI-60 one-dose screen, 48 h (100 = growth as untreated, 0 = no growth, -100 = all killed)
- condition notes: 10 µM unless noted
This is part of a sample that, as a whole, favours compounds with a hit. Of some 83,000 tested, about 20% had one in any assay. The source made the active and inactive calls. The calls were made as follows: active = growth percent below 10; inactive = the rest.
parameter measured: growth

q: Input OC[C@@H](O)[C@@H](O)CO , output reported growth.
a: 106% (inactive)

q: Input Nc1nc2c(s1)CCc1c-2c(Br)n(Cc2ccccc2)c1Br , output reported growth.
a: 91.8% (inactive)

q: Input CCC(C)Oc1cc(/C=N/NC(=O)c2cnn3c2NC(c2ccccc2)C3)ccc1OC (configuration not stated) , output reported growth.
a: 34% (inactive)

q: Input COC(=O)c1c2c(c(C)[n+]([O-])c1C)C(=O)C=C(NCc1ccc(F)c(Cl)c1)C2=O , output reported growth.
a: -88.4% (active)

q: Input Cc1ccccc1-n1nnc(C(=O)Nc2ccc(-c3ccccc3)cn2)c1C , output reported growth.
a: 41.8% [50 µM] (inactive)

q: Input CCOC(=O)c1[nH]c2cc(Cl)ccc2c1[C@@H](C(=O)NC(C)(C)C)N(CC)C(=O)CCCCC#Cc1cccc2c1CN(C1CCC(=O)NC1=O)C2=O (some centres not stated) , output reported growth.
a: 16.9% (inactive)

q: Input O=[N+]([O-])c1cc2c(cc1Br)-c1ccccc1C2 , output reported growth.
a: 78.7% (inactive)

q: Input COc1cc(/C=C2\C(=O)N(c3c(Cl)cccc3Cl)c3ccccc32)cc(OC)c1O , output reported growth.
a: 39.2% (inactive)

q: Input Cn1c2ccccc2c2nn(Cc3ccccc3)c(=O)nc21 , output reported growth.
a: 104% (inactive)

q: Input O=C1NC(=O)C2(CCCC2C(=O)O)N1 (configuration not stated) , output reported growth.
a: 106% (inactive)

q: Input CCOC(=O)c1c(Cl)c2c(n1Cc1cc(OC)cc(OC)c1)-c1oncc1CCC2 , output reported growth.
a: 12.7% (inactive)

q: Input CCC(=O)Nc1nnc(Cc2ccc(OC)c(OC)c2)s1 , output reported growth.
a: 22.7% (inactive)

q: Input COc1ccc(Sc2ccc3[nH]c(=O)nc(N)c3c2)cc1 , output reported growth.
a: 105% (inactive)

q: Input Cn1c(=O)c(S(=O)(=O)c2ccccc2)cc2ccc3c(cnn3-c3ccc(Cl)cc3)c21 , output reported growth.
a: 83.7% (inactive)

q: Input CCCCc1ccc(C(O)(CCN2CC3CCC(CC3)C2)c2ccccc2)cc1 (configuration not stated) , output reported growth.
a: 91.7% (inactive)

q: Input O=C(c1cnn2c1NC(c1ccc(F)cc1)C2)N1CCCCC1 (configuration not stated) , output reported growth.
a: 101% (inactive)

q: Input Cc1cccc2c(=O)c3c(sc12)c(NCCCN)nc1ccccc13 , output reported growth.
a: -19.7% (active)

q: Input CCCC1=NNC(=O)C1 , output reported growth.
a: 104% (inactive)

q: Input Cc1ccccc1-c1cc(-c2ccc(Br)s2)[nH]c(=O)c1C#N , output reported growth.
a: 93.6% (inactive)

q: Input COc1ccc(C2=NOC(CC(=O)N(CCO)CCO)C2)cc1OC1CCCC1 (configuration not stated) , output reported growth.
a: 92.2% (inactive)

q: Input COc1cc(C(=O)N(C(C)C)C2CCCCC2)cc(OC)c1OC , output reported growth.
a: 132% (inactive)

q: Input COc1cccc(C2CC(=O)Nc3cc4c(cc32)CCC4)c1OC (configuration not stated) , output reported growth.
a: 25.5% (inactive)
